target: T1, cynomolgus PD-1 (#PD1-C52H5, AcroBiosystems) (cynomolgus monkey, UniProt B0LAJ3 25-170); test: SPR, PD-1 on captured IgG1
T1 construct: bought; also called cynomolgus monkey PD-1; not shown: the vendor's tag on the recombinant protein (AcroBiosystems #PD1-C52H5)
T1 sequence (B0LAJ3 entry or part of it limits assumed, form in doubt): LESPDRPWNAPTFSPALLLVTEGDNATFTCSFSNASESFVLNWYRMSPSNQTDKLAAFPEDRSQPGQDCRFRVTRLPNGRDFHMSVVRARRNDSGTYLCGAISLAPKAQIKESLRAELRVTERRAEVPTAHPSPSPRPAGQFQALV
quantity_measured: kon (M⁻¹ s⁻¹)
# output: bare number, implied unit M⁻¹ s⁻¹

## Task Form field: reported kon of NWL270 (antibody, human IgG1, V domains shown, human IgG1) VH: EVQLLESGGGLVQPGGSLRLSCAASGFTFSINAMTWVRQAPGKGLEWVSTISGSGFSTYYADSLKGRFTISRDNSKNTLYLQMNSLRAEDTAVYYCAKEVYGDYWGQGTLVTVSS VL: RSVLTQPPSASGTPGQRVSISCSGASSNIGSQSVFWYQQLPGTAPKLLIYSNNQRPSGVPDRFSGSKSGTSASLAISGLRSEDEADYYCAAWDDSLSNWVFGGGTKLTVL
## Result 158000

## Task I would be grateful if you could share the reported kon for SSR010 (antibody, human IgG1, V domains shown, human IgG1) VH: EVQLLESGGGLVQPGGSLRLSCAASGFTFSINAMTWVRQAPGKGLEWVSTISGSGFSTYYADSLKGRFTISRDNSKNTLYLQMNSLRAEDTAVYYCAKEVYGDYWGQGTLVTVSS VL: RSVLTQPPSASGTPGQRVSISCSGASSNVGSQSVFWYQQLPGTAPKLLIYSNNQRPSGVPDRFSGSKSGTSASLAISGLRSEDEADYYCAAWDDSLSIWVFGGGTKLTVL .
## Result 263000

## Task Which kon reading was recorded for the binder GDY271 (antibody, human IgG1, V domains shown, human IgG1) VH: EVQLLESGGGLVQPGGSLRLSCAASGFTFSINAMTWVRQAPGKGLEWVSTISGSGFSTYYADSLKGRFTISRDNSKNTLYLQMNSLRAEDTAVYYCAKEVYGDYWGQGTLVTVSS VL: RSVLTQPPSASGTPGQRVSISCSGASSNIGSQSVYWYQQLPGTAPKLLIYSNNQRPSGVPDRFSGSKSGTSASLAISGLRSEDEADYYCAAWDDSLSIWVFGGGTKLTVL ?
## Result 1.91e+09
